biological target: Dickkopf-related protein 1 (Homo sapiens) (UniProt O94907); experiment: DKK1 binders on small-molecule microarrays, primary screen, biochemical, small-molecule microarray, 635 nm fluorescence scan (AID 1106); details: DKK1 binding, higher = more signal;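 further: score merges emission near 667 nm with signal to noise over three replicate slides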
Sequence (O94907 whole entry, looked up): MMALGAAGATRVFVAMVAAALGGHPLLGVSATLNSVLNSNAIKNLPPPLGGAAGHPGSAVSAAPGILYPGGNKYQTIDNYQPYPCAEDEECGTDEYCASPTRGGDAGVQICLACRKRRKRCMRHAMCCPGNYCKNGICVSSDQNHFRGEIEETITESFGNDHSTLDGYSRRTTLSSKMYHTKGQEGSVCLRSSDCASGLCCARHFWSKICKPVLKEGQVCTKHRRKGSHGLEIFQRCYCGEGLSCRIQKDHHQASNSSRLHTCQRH
RECORDED METRIC: composite z-score
No unit in the answer, only the number.

{"MOLECULE": "C=C[C@H](OC)[C@@H](O)c1ccc(OC)c(O)c1", "RECORDED METRIC": "composite z-score", "ASSAY RESULT": -1.29}
{"MOLECULE": "Cc1ccc(S(=O)(=O)N2[C@@H](c3ccccc3)C(C(=O)O)=CC[C@H]2c2ccc(F)cc2)cc1", "RECORDED METRIC": "composite z-score", "ASSAY RESULT": -0.757}
{"MOLECULE": "COCCOC(=O)N1C(=O)[C@@]2(c3cc(C#CC4=CCCCC4)ccc31)[C@H](C(=O)N1CCCCCCC1)[C@H]1C(=O)O[C@H](c3ccccc3)[C@H](c3ccccc3)N1[C@@H]2c1ccccc1OCCO", "RECORDED METRIC": "composite z-score", "ASSAY RESULT": 0.865}
{"MOLECULE": "CC(CO)N1C(=O)[C@@H]2[C@H]3C(=O)OCC=C[C@H]3OC23C=CCN(c2ccc4ccccc4c2)C(=O)[C@@H]13 (stereo partly drawn)", "RECORDED METRIC": "composite z-score", "ASSAY RESULT": -1.83}
{"MOLECULE": "COC(=O)[C@H](Cc1ccccc1)N1CC(C)(OC)O[C@@H](Cc2ccccc2)[C@H]1/C=C/C1CC1 (stereo partly drawn)", "RECORDED METRIC": "composite z-score", "ASSAY RESULT": -0.268}
{"MOLECULE": "N#Cc1ccc(NN2C(C(O)c3ccc(B(O)O)cc3)C=CC3CN(c4ccccc4)C(=O)C32)cc1 (stereo not drawn)", "RECORDED METRIC": "composite z-score", "ASSAY RESULT": -0.445}
{"MOLECULE": "O=C1C2C=CC(C(O)C(c3ccccc3)c3ccccc3)N(Nc3ccccc3F)C2C(=O)N1c1ccccc1 (stereo not drawn)", "RECORDED METRIC": "composite z-score", "ASSAY RESULT": 0.0465}
{"MOLECULE": "COC(=O)C(CC#Cc1ccc2c(c1)[C@]1(C(=O)N2)[C@H](C(=O)N2CCN(c3ncccn3)CC2)[C@H]2C(=O)O[C@H](c3ccccc3)[C@H](c3ccccc3)N2[C@@H]1c1ccc(O)cc1)C(=O)OC", "RECORDED METRIC": "composite z-score", "ASSAY RESULT": 0.856}

Query :: // map C[C@H]1C2[C@H](Cc3ccccc3)NC(=O)[C@]23C(=O)N[C@@H](Cc2ccccc2)C(=O)N2CCC[C@H]2C(=O)NC/C=C/CC/C=C/C3[C@@H]2O[C@]12C (stereo partly drawn) to recorded composite z-score (system: Dickkopf-related protein 1 (Homo sapiens) (UniProt O94907))
Result :: 0.272

Query :: // map COc1ccc(CCNC(=O)[C@@]2(C)c3ccccc3C(=O)N(Cc3ccc(OC(F)(F)F)cc3)[C@H]2c2ccc(CO)cc2)cc1 to recorded composite z-score (system: Dickkopf-related protein 1 (Homo sapiens) (UniProt O94907))
Result :: 1

Query :: // map COc1ccc([Si](C)(C)[C@H]2[C@H](CC(=O)N(CCO)Cc3ccccc3)O[C@@]3(C(=O)N(Cc4cccc(N5CCCCC5=O)c4)c4ccccc43)[C@@H]2C)cc1 to recorded composite z-score (system: Dickkopf-related protein 1 (Homo sapiens) (UniProt O94907))
Result :: 0.327

Query :: // map O=C1C[C@@](C(=O)NCC(F)(F)F)(c2ccc([N+](=O)[O-])cc2)[C@@H](c2ccc(CO)cc2I)N1CC12CC3CC(CC(C3)C1)C2 to recorded composite z-score (system: Dickkopf-related protein 1 (Homo sapiens) (UniProt O94907))
Result :: -0.0464

Query :: // map Cc1ccc(N2C(=O)c3ccccc3[C@@H](C(=O)NCCN3CCOCC3)[C@@H]2c2ccc(CO)cc2)nc1 to recorded composite z-score (system: Dickkopf-related protein 1 (Homo sapiens) (UniProt O94907))
Result :: -0.459

Query :: // map CC(C)N1CC=CC23O[C@@H]4/C=C\CCCOC(=O)C4[C@H]2C(=O)N(C(C)CO)[C@@H]3C1=O (stereo partly drawn) to recorded composite z-score (system: Dickkopf-related protein 1 (Homo sapiens) (UniProt O94907))
Result :: -1.35

Query :: // map CC1CC/C=C\[C@H]2OC34C=CCN(C(C)C)C(=O)[C@H]3N(C(C)CO)C(=O)[C@@H]4C2C(=O)O1 (stereo partly drawn) to recorded composite z-score (system: Dickkopf-related protein 1 (Homo sapiens) (UniProt O94907))
Result :: 0.165

Query :: // map CC(C)(C)OC(=O)CC[C@@]1(C(=O)N2CCOCC2)N=C(c2ccc(OCCCO)cc2)O[C@@H]1c1ccccc1CN=[N+]=[N-] to recorded composite z-score (system: Dickkopf-related protein 1 (Homo sapiens) (UniProt O94907))
Result :: -0.0447

Query :: // map CC[C@H]1C2=C3C(CC[C@H]4C(OCc5ccc(F)cc5C(F)(F)F)OC[C@](C)([C@@H]34)N(C(=O)OC(C)(C)C)C2)C(COC(C)=O)C1COC(C)=O (stereo partly drawn) to recorded composite z-score (system: Dickkopf-related protein 1 (Homo sapiens) (UniProt O94907))
Result :: -0.583

Query :: // map C=C[C@H](C)[C@@H](OC(=O)Nc1ccc(SC)cc1)c1ccc(OCCO)cc1 to recorded composite z-score (system: Dickkopf-related protein 1 (Homo sapiens) (UniProt O94907))
Result :: -0.395

Query :: // map COc1ccc([Si](C)(C)[C@H]2[C@H](CC(=O)N(CCO)Cc3ccccc3)O[C@@]3(C(=O)N(Cc4ccc(N5C(=O)c6cccc7cccc5c67)cc4)c4ccccc43)[C@@H]2C)cc1 to recorded composite z-score (system: Dickkopf-related protein 1 (Homo sapiens) (UniProt O94907))
Result :: 0.541

Query :: // map O=C(NC1CC1)[C@@H]1c2ccccc2C(=O)N(C2CCCCC2)[C@H]1c1ccc(CO)cc1 to recorded composite z-score (system: Dickkopf-related protein 1 (Homo sapiens) (UniProt O94907))
Result :: 0.139

Query :: // map C=CC[C@]12N=C(c3ccc(OCCCO)cc3)O[C@H]1c1ccccc1N(CCC)C2=O to recorded composite z-score (system: Dickkopf-related protein 1 (Homo sapiens) (UniProt O94907))
Result :: 0.277

Query :: // map CCOC(=O)C1=C[C@@H](C(C)(C)C)N(S(=O)(=O)c2ccc(C)cc2)[C@H]1c1ccc(OC)cc1 to recorded composite z-score (system: Dickkopf-related protein 1 (Homo sapiens) (UniProt O94907))
Result :: 0.33

Query :: // map CCN1C(=O)C2CC(=O)C3C(CN(S(=O)(=O)c4ccc(C)cc4)C3c3ccc(C)cc3)C2C1=O (stereo not drawn) to recorded composite z-score (system: Dickkopf-related protein 1 (Homo sapiens) (UniProt O94907))
Result :: -0.295

Query :: // map [N-]=[N+]=NCc1ccccc1[C@H]1OC(c2ccc(OCCCO)cc2)=N[C@@]1(CCS(=O)(=O)c1ccccc1)C(=O)O to recorded composite z-score (system: Dickkopf-related protein 1 (Homo sapiens) (UniProt O94907))
Result :: -0.697

Query :: // map C=C(C(=O)CC[C@@H](OC(=O)c1ccccc1-c1ccccc1C(=O)O)c1cccc(OCCO)c1)C(C)C to recorded composite z-score (system: Dickkopf-related protein 1 (Homo sapiens) (UniProt O94907))
Result :: 0.907

Query :: // map CC1C2C(CCCO)=CC(C3C(=O)N(C)C(=O)C23)N1Cc1cccc(OC(F)(F)F)c1 (stereo not drawn) to recorded composite z-score (system: Dickkopf-related protein 1 (Homo sapiens) (UniProt O94907))
Result :: -0.124

Query :: // map C=CCC(OC(C)=O)[C@@H]1[C@@H](N(Cc2ccc(-c3ccccc3)cc2)C(=O)Cc2ccc(OC)cc2)c2cc(OCCCO)ccc2N1C(=O)c1ccc2ccccc2c1 (stereo partly drawn) to recorded composite z-score (system: Dickkopf-related protein 1 (Homo sapiens) (UniProt O94907))
Result :: -0.0863

Query :: // map COc1ccc(C(=O)Nc2ccc(CN3C(=O)[C@]4(O[C@H](CC(=O)N(CCO)Cc5ccccc5)[C@@H]([Si](C)(C)c5ccc(OC)cc5)[C@@H]4C)c4ccccc43)cc2)cc1 to recorded composite z-score (system: Dickkopf-related protein 1 (Homo sapiens) (UniProt O94907))
Result :: 1.1
